// 5-hydroxytryptamine receptor 1A (Rattus norvegicus) Ki records
Entry rule: numbers only, all in nM.

q: Entry CCCN1CCc2cccc3c2C(CCC3)C1.Cl (configuration not stated) has what Ki?
a: 50.1

q: Entry CN1CCc2cccc3c2C(CCCC3)C1.Cl (configuration not stated) has what Ki?
a: 398

q: Entry CN1CCc2c(Cl)ccc3c2C(CCCC3)C1 (configuration not stated) has what Ki?
a: 79.4

q: Entry CN1CCc2cccc3c2[C@H](CCC3)C1.Cl has what Ki?
a: 31.6

q: Entry Br.CN1CCc2cccc3[nH]cc(c23)C1 has what Ki?
a: 100

q: Entry Br.CN1CCc2c(Cl)ccc3[nH]cc(c23)C1 has what Ki?
a: 31.6

q: Entry CN1CCc2c(Cl)ccc3c2C(CCC3)C1 (configuration not stated) has what Ki?
a: 10
